Listed here: items and their measured composite z-score.
biological target: Torsin-1A-interacting protein 1 (Homo sapiens) (UniProt Q5JTV8); assay: compound microarray binding of lysate hLAP1 – cell lysate, small-molecule microarray, COS7 lysate, 635/667 nm fluorescence, primary screen (AID 1116); conditions: 635 nm fluorescence, higher = more signal
Sequence (Q5JTV8 whole entry, looked up): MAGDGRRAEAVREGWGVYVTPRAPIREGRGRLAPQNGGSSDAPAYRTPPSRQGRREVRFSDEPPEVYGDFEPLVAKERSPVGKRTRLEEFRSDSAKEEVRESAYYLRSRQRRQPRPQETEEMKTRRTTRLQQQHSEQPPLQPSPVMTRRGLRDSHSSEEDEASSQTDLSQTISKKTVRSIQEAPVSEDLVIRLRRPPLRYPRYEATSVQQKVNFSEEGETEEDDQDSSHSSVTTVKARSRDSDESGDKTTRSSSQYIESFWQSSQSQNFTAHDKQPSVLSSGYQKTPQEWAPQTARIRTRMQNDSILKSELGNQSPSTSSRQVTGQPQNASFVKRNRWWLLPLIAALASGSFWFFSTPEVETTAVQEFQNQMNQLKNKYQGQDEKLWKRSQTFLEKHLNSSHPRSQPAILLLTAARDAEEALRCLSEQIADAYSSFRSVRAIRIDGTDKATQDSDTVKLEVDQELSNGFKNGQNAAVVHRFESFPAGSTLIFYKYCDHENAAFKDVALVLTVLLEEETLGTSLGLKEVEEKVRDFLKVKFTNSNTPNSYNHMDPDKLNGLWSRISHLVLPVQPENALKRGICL
Output: the number by itself.

compound	composite z-score
COCCOC(=O)N1C(=O)[C@@]2(c3cc(C#CC4=CCCCC4)ccc31)[C@H](C(N)=O)[C@H]1C(=O)O[C@H](c3ccccc3)[C@H](c3ccccc3)N1[C@@H]2c1ccc(O)cc1	0.923
O=C1N(CCS(=O)(=O)c2ccccc2)c2ccccc2[C@@H]2OC(c3ccc(OCCCO)cc3)=N[C@]12Cc1ccccc1	0.309
CO[C@H]1O[C@H](CO)[C@@H](OC(=O)Nc2ccc(Br)cc2)[C@@H]2OC(=O)[C@H](Cc3cccc(Br)c3)C/C=C/C[C@@H](Cc3cccc(Br)c3)C(=O)O[C@@H]12	-0.284
C=CCNC(=O)[C@H]1[C@@H]2C(=O)O[C@@H](c3ccccc3)[C@@H](c3ccccc3)N2[C@@H](c2ccc(O)cc2)[C@]12C(=O)Nc1ccc(C#CCCO)cc12	-0.428
C=C(/C(=C/C[C@H](OC(=O)c1ccncc1)c1ccc(OCCO)cc1)c1cc(C(=O)OC)ccc1OC)C(C)C	0.296

Exam item: Report the value of composite z-score obtained on Torsin-1A-interacting protein 1 (Homo sapiens) (UniProt Q5JTV8) for "[N-]=[N+]=Nc1ccccc1C[C@]1(C(=O)N2CCCCC2)COC(c2ccc(OCCCO)cc2)=N1" .
Marked response: 1.03

Exam item: Report the value of composite z-score obtained on Torsin-1A-interacting protein 1 (Homo sapiens) (UniProt Q5JTV8) for "COc1ccc(-c2cc3c(c(Cc4ccccc4)n2)[Si](C(C)C)(C(C)C)OC3)cn1" .
Marked response: -0.0516

Exam item: Report the value of composite z-score obtained on Torsin-1A-interacting protein 1 (Homo sapiens) (UniProt Q5JTV8) for "CC(C)CNC(=O)[C@@]1(Cc2ccccc2I)c2ccccc2C(=O)N(Cc2ccccc2C(F)(F)F)[C@H]1c1ccc(CO)cc1" .
Marked response: 0.146

Exam item: Report the value of composite z-score obtained on Torsin-1A-interacting protein 1 (Homo sapiens) (UniProt Q5JTV8) for "[N-]=[N+]=Nc1ccccc1[C@H]1OC(c2ccc(OCCCO)cc2)=N[C@@]1(CCS(=O)(=O)c1ccccc1)C(=O)NCc1ccccc1" .
Marked response: 1.06

====

experiment: small molecules captured by biotinylated probe aFGF10 – biochemical, small-molecule microarray, fluorescence 635/667, stem cell growth factor project, primary screen (AID 1071); details: higher = more signal;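 also: score merges 667 nm spot intensity and signal to noise from triplicate slides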
composite z-score vs 0.4: at or above is Yes, below is No.

Field: example entries. Status: answers known.
compound	label-value
O=C1C2C=CC(C(O)c3ccc(F)cc3)N(Nc3ccc([N+](=O)[O-])cc3)C2C(=O)N1c1ccccc1 (stereo not given)	No
CCCCCCCCCCC(O)C1C=CC2C(=O)NC(=O)C2N1Nc1ccc(Cl)cc1Cl (stereo not given)	No
O=C1C[C@@](C(=O)NCc2ccccc2)(c2ccc([N+](=O)[O-])cc2)[C@@H](c2ccc(CO)cc2)N1CC12CC3CC(CC(C3)C1)C2	Yes

Exam item: Decide: is the reported value of composite z-score for "O=C(NC1CC1)[C@@H]1c2ccccc2C(=O)N(Cc2cc(F)cc(C(F)(F)F)c2)[C@H]1c1ccc(CO)cc1" equal to or greater than 0.4?
Marked response: No

Exam item: Decide: is the reported value of composite z-score for "[N-]=[N+]=Nc1ccccc1C[C@@]1(C(=O)N2CCCCC2)N=C(c2ccc(OCCCO)cc2)O[C@@H]1c1ccccc1N=[N+]=[N-]" equal to or greater than 0.4?
Marked response: Yes

Exam item: Decide: is the reported value of composite z-score for "Cc1ccc([C@H]2C(C(=O)O)=CCN2S(=O)(=O)c2ccc(C)cc2)cc1" equal to or greater than 0.4?
Marked response: No
